# Test system: CD2F1 mice, L1210 leukemia ip, survival T/C
# Method Notes: NCI In Vivo Anticancer Drug Screen. Data for tumor model L1210 Leukemia (intraperitoneal) in CD2F1 (CDF1) mice
# Test Parameters: endpoint: mean survival time; dose: 20.0 mg/kg/injection; schedule: Q01DX001 (ip); vehicle: saline
Inconclusive results and toxic doses are left out. The calls were made as follows: active = survival T/C of 150% or more; inactive = T/C below 125% in these data.
One label from this list, please: 1 = active, 0 = inactive

Sample answers from the record:
CCC(CC)n1c(C)cc(=O)n1C(CC)CC ... 0
O=C1NC(=O)C2CC(Br)C(Br)CC12 (centres undefined) ... 0
COc1cccc2c1C(=O)c1c(O)c3c(c(O)c1C2=O)C[C@@](O)(C(=O)CO)C[C@@H]3OC1CC(N)C(O)C(C)O1 (some centres undefined) ... 1

Please find the next molecule below.
Exercise: Give the logged outcome of this assay for the following molecule: "C[N+](C)(C)CC1CCCC1"
Solution: 0

* * *

# Test system: CD2F1 mice, L1210 leukemia ip, survival T/C
# Method Notes: NCI In Vivo Anticancer Drug Screen. Data for tumor model L1210 Leukemia (intraperitoneal) in CD2F1 (CDF1) mice
# Test Parameters: endpoint: mean survival time; dose: 75.0 mg/kg/injection; schedule: Q01DX001 (ip); vehicle: other; higher = longer survival
Inconclusive results and toxic doses are left out.
Quantity Measured: T/C

Answered cases to consult:
COC(=O)c1ccc(N(C)C/C(CN2C(=O)c3ccccc3C2=O)=N\O)cc1 ... 92 % of control
O=C(OCC(I)CC(F)(F)C(F)(F)F)c1ccc2cc(C(=O)OC(I)CC(F)(F)C(F)(F)F)ccc2c1 (stereo not given) ... 101 % of control
CN(C)[C-]=O.[C-]#[O+].[C-]#[O+].[Fe+6].[c-]1[c-][c-][cH-][c-]1 ... 94 % of control
Clc1ccc(OCCCCCNCCSSCCNCCCCCOc2ccc(Cl)cn2)nc1 ... 101 % of control

Exercise: Returns the measured T/C for the input compound. Input: "N=c1c2ncn(C3CCCC3)c2ncn1Cc1ccc([N+](=O)[O-])cc1"
Solution: 106 % of control

* * *

Could you please report measured T/C for the items listed next?
# System: CD2F1 mice, L1210 leukemia ip, survival T/C
# Method Notes: NCI In Vivo Anticancer Drug Screen. Data for tumor model L1210 Leukemia (intraperitoneal) in CD2F1 (CDF1) mice
# Test Parameters: endpoint: mean survival time; dose: 100.0 mg/kg/injection; schedule: Q01DX009 (ip); vehicle: acetone; higher = longer survival
Inconclusive results and toxic doses are left out.

Give measured T/C for every item shown.
1. O=[N+]([O-])c1ccc(/C=C/C=C\c2cccc(S(=O)(=O)F)c2)c(Cl)c1
2. CCCCCCC(C)OC(=O)CCCc1ccc(N(CCCl)CCCl)cc1 (centres undefined)
3. O=[N+]([O-])c1ccc(-n2[nH]nnc2=S)cc1

Solution:
100 % of control
104 % of control
95 % of control

Exercise: Item O=[N+]([O-])c1ccc(Cl)c(CNc2ncnc3c2ncn3C2CCCCO2)c1 (centres undefined) has what recorded T/C?
Solution: 95 % of control

* * *

# System: CD2F1 mice, L1210 leukemia ip, survival T/C
# Method Notes: NCI In Vivo Anticancer Drug Screen. Data for tumor model L1210 Leukemia (intraperitoneal) in CD2F1 (CDF1) mice
# Test Parameters: endpoint: mean survival time; dose: 100.0 mg/kg/injection; schedule: Q04DX003 (ip); vehicle: saline with Tween-80; higher = longer survival
Inconclusive results and toxic doses are left out.
Please go through the items and note down their T/C.

Illustrative cases are given below, each with its answer.
c1ccc(NC(Nc2ccccn2)c2ccncc2)nc1 ... 102 % of control
N=C(N=c1cc(C(=O)NC(=N)NC(=N)Nc2ccc(Cl)cc2)n(C(=N)NC(=N)Nc2ccc(Cl)cc2)c(C(=O)NC(=N)NC(=N)Nc2ccc(Cl)cc2)c1)NC(=N)Nc1ccc(Cl)cc1 ... 98 % of control
O=S(=O)(O)O.[Fe] ... 96 % of control
Cc1ccc(NC(=O)CCl)cc1C ... 96 % of control
O=c1[nH]cc(COCc2ccccc2)c(=O)[nH]1 ... 98 % of control
COC(=O)c1ccc(O)c(O)c1 ... 99 % of control
COc1ccc(C(=O)O)c([N+](=O)[O-])c1 ... 98 % of control
NC(=O)/C=C1\NC(=O)CS1 ... 100 % of control
CSc1nc(C)cc(Cl)n1 ... 103 % of control
CC12CCC(CC1CO)C2 (stereo unspecified) ... 88 % of control

Parameters: items (list). Returns: T/C for each item.
1. [Cl][Pt][Cl].c1ccc([AsH](CC[AsH](c2ccccc2)c2ccccc2)c2ccccc2)cc1
2. COc1ccc([N+](=O)[O-])cc1CO/N=C(/CCC(=O)O)C(=O)O

Solution:
1. 96 % of control
2. 101 % of control
